system: TK-10 renal; experiment: NCI tumour cell line growth inhibition, 48 h; in the data active = GI50 below about 0.43 µM; inactive = the rest
Outcome codes: active, inactive

{"columns": ["compound", "tested.target", "class.name"],
 "data": [
  ["COc1cccc2c1C(=O)c1c(O)c3c(c(O)c1C2=O)C[C@@](O)(C(=O)CO)C[C@@H]3OC1CC2C(OCN3CN2COC2C(C)OC(O[C@H]4C[C@](O)(C(=O)CO)Cc5c(O)c6c(c(O)c54)C(=O)c4c(OC)cccc4C6=O)CC23)C(C)O1 (stereo not given in full)", "TK-10 renal", "active"],
  ["O=C(Cc1n[nH]c(=O)c2ccccc12)OCc1c(Cl)cccc1Cl", "TK-10 renal", "inactive"],
  ["O=C(c1ccco1)c1nc2ccc(Cl)cc2[n+]([O-])c1C(F)(F)F", "TK-10 renal", "inactive"],
  ["Nc1n[nH]c2cccc(C#Cc3cccc(NC(=O)c4ccc(N5CCOCC5)c(C(F)(F)F)c4)c3)c12", "TK-10 renal", "inactive"],
  ["COc1ccc2cc(C#Cc3ccc(-n4c(/C=C/c5cc(OC)c(OC)c(OC)c5)nc5ccccc5c4=O)c(C)c3)ccc2c1", "TK-10 renal", "inactive"]
]}
